Assay: Plasma pharmacokinetics of BI 187004 after single oral doses (LC–MS/MS)
Conditions: male, human, plasma, po, 360 mg, BI 187004 plasma concentrations, Mean, 360 mg single oral, planned time 12 h
readout-label: concentration at 12 h (µM)
Give bare numbers, in µM.

Data point: N#Cc1ccc2c(c1)[C@H]1CCCN(C(=O)c3ccc4[nH]cnc4c3)[C@H]1C2 [BI 187004] ; concentration at 12 h = 4.83

* * *

Test: Plasma pharmacokinetics of BI 187004 after single oral doses (LC–MS/MS)
Conditions: male, human, plasma, po, 160 mg, BI 187004 plasma concentrations, 160 mg single oral, planned time 1 h, Min
readout-label: concentration at 1 h (µM)
Numbers only, in µM.

Data point: N#Cc1ccc2c(c1)[C@H]1CCCN(C(=O)c3ccc4[nH]cnc4c3)[C@H]1C2 ; concentration at 1 h = 3.92
